- assay.protocol: inhibitors of HIV-1 Env-driven cell-cell fusion, primary screen, HeLa-JRFL effector, CEM21 target cells, luciferase (AID 651610);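 also: 0% = plate neutral controls and 100% = maraviroc near 300 nM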
- applied.conditions: active compounds read high; at 16.7 µM unless noted
About 3,900 (1.1%) of roughly 360,000 compounds were called active. The list comes from a sample in which actives are over-represented; it also holds close analogues and randomly drawn compounds.
Recorded inhibition, one value per entry.

Incoming: // query inhibition value for entry C/C=C/c1cnc2c(c1)C(=O)N([C@@H](C)CO)C[C@H](C)[C@@H](CN(C)C(=O)C1CC1)O2
Outgoing: 10.3% (inactive)

Incoming: Name the recorded inhibition for CCOC(=O)CNC(=O)N(C)[C@H]1C[C@H]2c3[nH]c4c(-c5ccc6c(c5)OCO6)cccc4c3CCN2C(=O)[C@H]1[C@H](C)O .
Outgoing: -112% [at 12.3 µM] (inactive)

Incoming: # query: inhibition of entry COc1ccc2c3c(n(C)c2c1)[C@H](CO)N(C(=O)NC(C)C)CC31CCN(C(=O)NC(C)C)CC1
Outgoing: 25.2% (inactive)

Incoming: I have this compound here, Cc1noc(C)c1S(=O)(=O)Nc1ccc2c(c1)CC(=O)N([C@H](C)CO)C[C@H](C)[C@H](CN(C)S(=O)(=O)c1cn(C)cn1)O2 , and I need its recorded inhibition.
Outgoing: -15.2% (inactive)

Incoming: Need inhibition, item CC(C)NC(=O)N(C)C[C@H]1Oc2ncc(C#CC3CCCCC3)cc2C(=O)N([C@H](C)CO)C[C@@H]1C
Outgoing: 5.6% (inactive)

Incoming: Returns the measured inhibition for the input compound. Input: O=C(C[C@H]1C[C@H]2c3cc(NC(=O)Nc4ccc(C(F)(F)F)cc4)ccc3O[C@H]2[C@@H](CO)O1)NCCc1ccccc1
Outgoing: 6.45% (inactive)

Incoming: Reported inhibition for COC(=O)C1=C(C(=O)OC)C2C=C(C(C)C)C1C(=O)C2(C)O (stereo not drawn) : what is it?
Outgoing: -16.5% [at 12.3 µM] (inactive)

Incoming: Any idea what inhibition was measured for CN1C(=O)c2cc(NC(=O)c3cnccn3)ccc2OC[C@@H]2O[C@H](CC(=O)O)CC[C@@H]21 ?
Outgoing: -25.8% (inactive)
